- SYSTEM_NAME: GCK (Homo sapiens)
- Sequence (Q12851 whole entry): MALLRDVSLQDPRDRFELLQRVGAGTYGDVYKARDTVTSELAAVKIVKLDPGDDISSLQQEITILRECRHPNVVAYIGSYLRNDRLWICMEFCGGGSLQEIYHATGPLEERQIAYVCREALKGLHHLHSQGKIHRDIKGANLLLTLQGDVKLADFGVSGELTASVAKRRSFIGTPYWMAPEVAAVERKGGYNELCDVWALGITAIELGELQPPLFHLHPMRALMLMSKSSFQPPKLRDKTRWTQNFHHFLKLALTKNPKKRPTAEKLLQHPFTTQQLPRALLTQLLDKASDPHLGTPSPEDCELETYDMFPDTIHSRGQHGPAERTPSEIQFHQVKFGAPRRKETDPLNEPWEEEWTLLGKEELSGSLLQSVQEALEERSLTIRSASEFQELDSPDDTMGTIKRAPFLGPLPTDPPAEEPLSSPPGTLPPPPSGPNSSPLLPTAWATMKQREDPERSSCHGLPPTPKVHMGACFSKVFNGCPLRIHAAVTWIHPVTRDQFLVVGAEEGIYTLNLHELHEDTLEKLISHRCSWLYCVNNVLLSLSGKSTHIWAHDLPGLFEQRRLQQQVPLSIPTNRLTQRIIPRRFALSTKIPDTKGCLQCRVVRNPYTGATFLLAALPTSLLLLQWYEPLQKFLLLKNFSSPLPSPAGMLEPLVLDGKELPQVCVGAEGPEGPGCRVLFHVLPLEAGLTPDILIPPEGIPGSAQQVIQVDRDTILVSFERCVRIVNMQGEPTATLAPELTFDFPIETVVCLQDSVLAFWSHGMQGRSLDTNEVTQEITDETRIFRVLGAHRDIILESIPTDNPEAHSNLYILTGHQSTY
- EXPERIMENT_SUMMARY: Kinase profiling GCK
- Format: biochemical
- CONDITION_SUMMARY: 100 micromolar inhibitor concentration; 100 is no change; read-out: residual kinase activity, GCK
So basically: is remaining activity at 100 µM under 20%? Then 1.0. Not under? Then 0.0.

The examples below pair each entry with its known result.
API: query returns whether the compound falls strictly under 20% in remaining activity at 100 µM. Query: CC(=O)Nc1nc2ccc(C(F)(F)F)cc2s1 [Compound 01-90]
1.0

Check if remaining activity at 100 µM falls below 20% for CC(=O)Nc1nc2cc(C(F)(F)F)ccc2s1 [Compound 03-73] .
0.0

Given the entry CC(=O)Nc1nc2cc(F)ccc2s1 [Compound 03-77] , would its reported remaining activity at 100 µM be below 20%?
1.0

Problem: For the compound COc1ccc2sc(NC(C)=O)nc2c1 [Compound 03-21] , is remaining activity at 100 µM under 20%?
1.0

Find out if reported remaining activity at 100 µM for CC(=O)Nc1nc2ccc(O)cc2s1 [Compound 01-71] is less than 20%
1.0

Now consider a different compound.
Regarding CC(=O)Nc1nc2ccc(C#N)cc2s1 [Compound 01-94] , kindly confirm whether its remaining activity at 100 µM is beneath 20%.
1.0

* * *

- SYSTEM_NAME: PDGFRA (Homo sapiens, UniProt P16234)
- Sequence (P16234 24-1089, species assumed): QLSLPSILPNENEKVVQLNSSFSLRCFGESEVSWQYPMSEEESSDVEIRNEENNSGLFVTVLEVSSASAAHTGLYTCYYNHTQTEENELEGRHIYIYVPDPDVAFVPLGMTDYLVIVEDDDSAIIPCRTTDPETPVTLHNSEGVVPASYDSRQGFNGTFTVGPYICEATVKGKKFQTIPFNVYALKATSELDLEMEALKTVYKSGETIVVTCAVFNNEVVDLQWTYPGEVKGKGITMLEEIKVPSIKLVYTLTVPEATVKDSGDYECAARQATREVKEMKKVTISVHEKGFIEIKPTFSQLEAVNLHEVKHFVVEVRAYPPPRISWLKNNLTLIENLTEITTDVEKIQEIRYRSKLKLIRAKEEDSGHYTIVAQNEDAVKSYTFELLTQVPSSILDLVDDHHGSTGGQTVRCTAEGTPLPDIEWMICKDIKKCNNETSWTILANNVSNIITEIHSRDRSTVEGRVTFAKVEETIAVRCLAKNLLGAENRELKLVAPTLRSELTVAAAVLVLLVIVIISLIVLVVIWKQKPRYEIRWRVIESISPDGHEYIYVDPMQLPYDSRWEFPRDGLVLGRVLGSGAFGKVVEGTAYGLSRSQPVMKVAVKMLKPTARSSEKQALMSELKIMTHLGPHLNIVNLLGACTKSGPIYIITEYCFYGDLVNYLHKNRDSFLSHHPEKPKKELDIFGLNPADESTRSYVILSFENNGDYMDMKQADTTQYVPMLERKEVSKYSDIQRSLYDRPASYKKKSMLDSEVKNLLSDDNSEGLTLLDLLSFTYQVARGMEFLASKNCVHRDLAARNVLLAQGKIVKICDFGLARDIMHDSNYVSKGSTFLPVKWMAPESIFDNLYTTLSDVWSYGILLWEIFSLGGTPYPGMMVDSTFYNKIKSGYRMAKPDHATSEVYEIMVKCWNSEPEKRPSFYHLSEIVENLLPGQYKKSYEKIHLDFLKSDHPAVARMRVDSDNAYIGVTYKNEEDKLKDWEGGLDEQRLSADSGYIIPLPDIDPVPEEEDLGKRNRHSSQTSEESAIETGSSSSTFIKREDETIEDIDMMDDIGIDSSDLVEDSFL
- EXPERIMENT_SUMMARY: Kinase profiling PDGFRA
- Format: biochemical
- CONDITION_SUMMARY: 100 micromolar inhibitor concentration; 100 is no change
- Excerpt: Any value less that 25 is considered to be highly significant inhibition.
The following compounds are shown together with reported residual kinase activity, PDGFRA values.
Lab note: jot the number down without any unit.

Reference set, count: 2
// recorded residual kinase activity, PDGFRA for O=C(Nc1nc2ccc(O)cc2s1)c1ccccc1 : 29

Consider O=C(Nc1nc2ccc(O)cc2s1)c1ccncc1 . Its measured residual kinase activity, PDGFRA is 40

Attention now turns to another entry.
O=C(Nc1nc2cc(O)ccc2s1)c1cccnc1 yielded residual kinase activity, PDGFRA of 61

* * *

- SYSTEM_NAME: EPH-A2 (Homo sapiens)
- Sequence (P29317 24-976, species assumed): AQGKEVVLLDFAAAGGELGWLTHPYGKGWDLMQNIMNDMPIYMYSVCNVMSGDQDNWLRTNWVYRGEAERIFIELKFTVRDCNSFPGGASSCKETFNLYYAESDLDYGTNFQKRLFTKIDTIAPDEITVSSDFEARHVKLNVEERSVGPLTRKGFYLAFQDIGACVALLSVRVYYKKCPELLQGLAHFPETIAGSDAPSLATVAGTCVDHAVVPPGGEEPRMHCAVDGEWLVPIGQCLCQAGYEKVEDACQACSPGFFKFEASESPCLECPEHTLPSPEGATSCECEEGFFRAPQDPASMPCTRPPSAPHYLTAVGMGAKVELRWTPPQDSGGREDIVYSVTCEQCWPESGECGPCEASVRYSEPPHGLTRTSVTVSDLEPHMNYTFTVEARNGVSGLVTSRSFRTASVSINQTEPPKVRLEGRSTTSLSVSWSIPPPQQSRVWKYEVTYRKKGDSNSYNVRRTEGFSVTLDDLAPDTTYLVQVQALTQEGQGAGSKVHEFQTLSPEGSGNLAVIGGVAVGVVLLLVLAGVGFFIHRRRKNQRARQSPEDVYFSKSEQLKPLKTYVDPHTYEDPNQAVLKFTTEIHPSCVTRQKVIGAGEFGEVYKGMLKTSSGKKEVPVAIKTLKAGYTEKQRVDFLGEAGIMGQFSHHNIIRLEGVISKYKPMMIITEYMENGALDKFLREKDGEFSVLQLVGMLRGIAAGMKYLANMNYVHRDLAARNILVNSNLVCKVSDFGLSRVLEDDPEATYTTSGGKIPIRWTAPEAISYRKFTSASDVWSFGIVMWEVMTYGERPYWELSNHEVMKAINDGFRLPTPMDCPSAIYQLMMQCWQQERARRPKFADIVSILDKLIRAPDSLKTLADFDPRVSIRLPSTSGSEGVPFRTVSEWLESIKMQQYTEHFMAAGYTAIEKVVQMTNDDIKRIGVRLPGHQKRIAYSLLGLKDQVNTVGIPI
- EXPERIMENT_SUMMARY: Kinase profiling EPH-A2
- Assay type: biochemical
- CONDITION_SUMMARY: 100 micromolar inhibitor concentration; 100 is no change
- Description: Any value less that 25 is considered to be highly significant inhibition.
ASSAY_ENDPOINT: residual kinase activity, EPH-A2
Output spec: single numeric token, no unit.

Observe how each entry below is paired with its result.
Measured residual kinase activity, EPH-A2, O=C(Nc1nc2ccc(O)cc2s1)c1cccnc1 [Compound 08-44] : 81

Looking up O=C(Nc1nc2ccc(O)cc2s1)c1ccncc1 [Compound 08-42] , I found its residual kinase activity, EPH-A2 recorded as 77

New cases:
The compound listed as COc1ccc2nc(NC(=O)c3ccccc3)sc2c1 [Compound 03-98] shows residual kinase activity, EPH-A2 equal to 95

# compound COc1ccc2sc(NC(=O)c3cccc(C(N)=O)c3)nc2c1 [Compound 03-113] ; its residual kinase activity, EPH-A2 = 96

Value of measured residual kinase activity, EPH-A2 for the entry O=C(Nc1nc2ccc(C(F)(F)F)cc2s1)c1ccccc1 [Compound 03-99] : 110

Quick note, residual kinase activity, EPH-A2 for O=C(Nc1nc2ccc(O)cc2s1)c1ccccn1 [Compound 03-12] landed at 85

Query O=C(Nc1nc2cc(O)ccc2s1)c1ccccc1 [Compound 03-102] yields residual kinase activity, EPH-A2 of 65

The compound listed as COC(=O)c1cccc(C(=O)Nc2nc3cc(OC)ccc3s2)c1 [Compound 03-108] shows residual kinase activity, EPH-A2 equal to 76

Per the records, this compound ( N#Cc1ccc2nc(NC(=O)c3ccccc3)sc2c1 [Compound 03-106] ) has residual kinase activity, EPH-A2 equal to 89

Consider O=C(Nc1nc2cc(O)ccc2s1)c1cccnc1 [Compound 03-33] . Its measured residual kinase activity, EPH-A2 is 108

* * *

- SYSTEM_NAME: S6K1 (Homo sapiens)
- Sequence (P23443 whole entry, species assumed): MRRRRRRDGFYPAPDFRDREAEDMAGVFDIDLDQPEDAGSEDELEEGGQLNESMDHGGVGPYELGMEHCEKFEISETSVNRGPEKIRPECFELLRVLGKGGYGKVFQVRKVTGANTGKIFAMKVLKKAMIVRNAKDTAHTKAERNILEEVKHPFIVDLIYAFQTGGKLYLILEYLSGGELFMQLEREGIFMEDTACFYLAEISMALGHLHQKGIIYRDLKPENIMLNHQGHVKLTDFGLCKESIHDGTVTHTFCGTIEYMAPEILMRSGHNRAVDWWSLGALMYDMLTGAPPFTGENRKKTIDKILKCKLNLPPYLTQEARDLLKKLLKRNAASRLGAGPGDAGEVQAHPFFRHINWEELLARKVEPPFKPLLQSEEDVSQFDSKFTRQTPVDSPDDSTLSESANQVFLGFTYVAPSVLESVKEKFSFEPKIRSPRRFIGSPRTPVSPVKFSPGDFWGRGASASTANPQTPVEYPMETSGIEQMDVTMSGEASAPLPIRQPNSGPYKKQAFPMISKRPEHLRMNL
- EXPERIMENT_SUMMARY: Kinase profiling S6K1
- Type: biochemical
- CONDITION_SUMMARY: 100 micromolar inhibitor concentration; 100 is no change; read-out: residual kinase activity, S6K1
ASSAY_ENDPOINT: remaining activity at 100 µM
// return the numeric value with its unit appended

Some entries whose results are on file:
Form: compound = COc1ccc2sc(NC(C)=O)nc2c1 ; remaining activity at 100 µM = 63%

Value of remaining activity at 100 µM reported for the compound CC(=O)Nc1nc2ccc(O)cc2s1 is 23%

Query CC(=O)Nc1nc2ccc([N+](=O)[O-])cc2s1 yields remaining activity at 100 µM of 65%

Per the records, this compound ( CC(=O)Nc1nc2ccc(C(F)(F)F)cc2s1 ) has remaining activity at 100 µM equal to 85%

Per the record, CC(=O)Nc1nc2cc(F)ccc2s1 has remaining activity at 100 µM of 48%

Kindly note the recorded remaining activity at 100 µM for CC(=O)Nc1nc2cc(C(F)(F)F)ccc2s1 , which is 77%

Next:
Consider CC(=O)Nc1nc2ccc(C#N)cc2s1 . Its measured remaining activity at 100 µM is 73%

* * *

- SYSTEM_NAME: FGF-R1 (Homo sapiens, UniProt P11362)
- Sequence (P11362 22-822, species assumed): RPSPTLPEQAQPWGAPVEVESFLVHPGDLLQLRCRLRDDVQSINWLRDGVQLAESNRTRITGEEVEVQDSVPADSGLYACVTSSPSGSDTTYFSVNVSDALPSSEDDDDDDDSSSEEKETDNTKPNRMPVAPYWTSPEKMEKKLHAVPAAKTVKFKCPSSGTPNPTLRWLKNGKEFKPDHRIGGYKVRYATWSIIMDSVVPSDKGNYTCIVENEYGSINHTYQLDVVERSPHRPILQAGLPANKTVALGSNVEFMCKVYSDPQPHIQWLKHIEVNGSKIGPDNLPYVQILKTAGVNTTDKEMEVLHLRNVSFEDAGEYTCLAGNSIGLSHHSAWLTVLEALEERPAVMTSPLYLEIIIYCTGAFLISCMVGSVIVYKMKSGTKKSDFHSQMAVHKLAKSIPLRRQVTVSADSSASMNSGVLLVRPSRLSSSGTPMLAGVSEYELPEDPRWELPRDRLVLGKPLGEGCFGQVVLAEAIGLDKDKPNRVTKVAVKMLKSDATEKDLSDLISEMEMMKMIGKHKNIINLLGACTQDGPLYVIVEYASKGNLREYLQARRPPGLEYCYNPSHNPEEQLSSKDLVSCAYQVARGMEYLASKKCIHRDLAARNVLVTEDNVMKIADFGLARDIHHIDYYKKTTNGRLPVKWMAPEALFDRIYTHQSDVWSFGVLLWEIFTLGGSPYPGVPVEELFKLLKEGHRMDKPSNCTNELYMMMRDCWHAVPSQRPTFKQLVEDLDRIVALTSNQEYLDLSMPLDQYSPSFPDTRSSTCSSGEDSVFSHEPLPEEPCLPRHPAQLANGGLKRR
- EXPERIMENT_SUMMARY: Kinase profiling FGF-R1
- Assay type: biochemical
- CONDITION_SUMMARY: 100 micromolar inhibitor concentration; 100 is no change
- From the text: Any value less that 25 is considered to be highly significant inhibition.
Each record's residual kinase activity, FGF-R1 is compared with low: < 50; moderate: ≥ 50 and < 80; high: ≥ 80 to give its class.

Observe how each entry below is paired with its result.
Class label required: O=C(Nc1nc2ccc(O)cc2s1)c1ccccn1
low

Lab note: sort O=C(Nc1nc2ccc(O)cc2s1)c1ccncc1 into the matching residual kinase activity, FGF-R1 band.
moderate

# bin lookup: classify O=C(Nc1nc2ccc(O)cc2s1)c1ccccc1 by its residual kinase activity, FGF-R1
high

New cases:
Into which category would you place CC(=O)Nc1nc2ccccc2s1 ?
low

Exercise: read the entry O=C(Nc1nc2cc(O)ccc2s1)c1ccncc1 and state which class it falls under.
moderate

Bin this entry: CC(=O)Nc1nc2cc(C)ccc2s1
high

Band for the recorded residual kinase activity, FGF-R1 of O=C(Nc1nc2ccc(O)cc2s1)c1cccnc1 ?
moderate

Assign a bin to O=C(Nc1nc2cc(O)ccc2s1)c1cccnc1
high

* * *

Reported residual kinase activity, BRSK2 values for the following compounds.
- SYSTEM_NAME: BRSK2 (Homo sapiens)
- Sequence (Q8IWQ3 whole entry, species assumed): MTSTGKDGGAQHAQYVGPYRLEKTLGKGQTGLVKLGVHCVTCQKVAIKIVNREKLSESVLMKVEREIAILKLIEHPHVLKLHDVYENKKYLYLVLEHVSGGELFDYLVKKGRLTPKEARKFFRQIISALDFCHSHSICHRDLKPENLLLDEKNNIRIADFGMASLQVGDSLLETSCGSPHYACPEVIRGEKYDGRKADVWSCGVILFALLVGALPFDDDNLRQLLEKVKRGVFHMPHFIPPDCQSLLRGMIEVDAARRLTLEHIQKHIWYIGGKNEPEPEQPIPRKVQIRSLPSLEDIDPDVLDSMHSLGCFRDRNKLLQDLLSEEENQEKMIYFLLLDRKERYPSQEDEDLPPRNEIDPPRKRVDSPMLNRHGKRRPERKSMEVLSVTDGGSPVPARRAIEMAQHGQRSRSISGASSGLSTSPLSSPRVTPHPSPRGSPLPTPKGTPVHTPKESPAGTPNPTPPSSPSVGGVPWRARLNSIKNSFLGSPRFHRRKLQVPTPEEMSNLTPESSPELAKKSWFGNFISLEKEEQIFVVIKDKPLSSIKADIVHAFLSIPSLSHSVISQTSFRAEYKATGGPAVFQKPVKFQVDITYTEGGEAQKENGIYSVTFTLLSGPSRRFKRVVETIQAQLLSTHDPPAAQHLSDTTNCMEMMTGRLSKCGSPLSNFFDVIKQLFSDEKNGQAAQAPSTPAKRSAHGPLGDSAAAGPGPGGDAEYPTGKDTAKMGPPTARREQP
- EXPERIMENT_SUMMARY: Kinase profiling BRSK2
- Assay type: biochemical
- CONDITION_SUMMARY: 100 micromolar inhibitor concentration; 100 is no change
# output: bare number, no unit

Entry O=C(Nc1nc2ccc(O)cc2s1)c1ccccn1 [Compound 03-12] , BRSK2 (Homo sapiens) data, residual kinase activity, BRSK2 value: 79

// residual kinase activity, BRSK2 (BRSK2 (Homo sapiens)) for O=C(Nc1nc2cc(O)ccc2s1)c1cccnc1 [Compound 03-33] = 82

residual kinase activity, BRSK2 of CC(=O)Nc1nc2cc(C)ccc2s1 [Compound 03-76] , assay on BRSK2 (Homo sapiens), is 79

Case O=C(Nc1nc2cc(O)ccc2s1)c1ccccn1 [Compound 03-13] , BRSK2 (Homo sapiens), residual kinase activity, BRSK2 recorded as 80

Further cases:
Given the compound O=C(Nc1nc2cc(O)ccc2s1)c1ccncc1 [Compound 03-11] and test system BRSK2 (Homo sapiens), the measured residual kinase activity, BRSK2 is 81

Readout residual kinase activity, BRSK2 for O=C(Nc1nc2ccc(O)cc2s1)c1cccnc1 [Compound 08-44] , test system BRSK2 (Homo sapiens), was 52

* * *

Parameter: residual kinase activity, MARK3. Scope: all listed entries.
- SYSTEM_NAME: MARK3 (Homo sapiens)
- EXPERIMENT_SUMMARY: Kinase profiling MARK3
- Type: biochemical
- CONDITION_SUMMARY: 100 micromolar inhibitor concentration; 100 is no change
- Text: Any value less that 25 is considered to be highly significant inhibition.
Provide a numeric answer; units are not to be included.

Value of residual kinase activity, MARK3 reported for the compound O=C(Nc1nc2ccc(C(F)(F)F)cc2s1)c1ccccc1 is 106

// sample COC(=O)c1cccc(C(=O)Nc2nc3cc(OC)ccc3s2)c1 , its residual kinase activity, MARK3 was 100

So, COc1ccc2sc(NC(=O)c3ccccc3)nc2c1 ? Its residual kinase activity, MARK3 was 106

The reported residual kinase activity, MARK3 of the compound CC(=O)Nc1nc2ccc(F)cc2s1 was 96

// recorded residual kinase activity, MARK3 for COC(=O)c1cccc(C(=O)Nc2nc3ccc(F)cc3s2)c1 : 105

In plain terms, O=C(Nc1nc2ccc(O)cc2s1)c1ccccn1 has a documented residual kinase activity, MARK3 of 79

// recorded residual kinase activity, MARK3 for O=C(Nc1nc2ccc(O)cc2s1)c1ccncc1 : 68

residual kinase activity, MARK3 recorded for this compound, CC(=O)Nc1nc2ccccc2s1 , is 85

Measured residual kinase activity, MARK3, CC(=O)Nc1nc2cc(C)ccc2s1 : 71
